Assay: Cmax in Sprague-Dawley rat at 5 mg/kg, po measured upto 24 hrs by LC-MS/MS analysis
Assay type: ADME, organism-based
Design: time < 24 hrs, dose 5 mg/kg, route po
Conditions: in vivo
Reported property: Cmax (ng/mL)
// return numeric value only (unit: ng/mL, not printed)

Prompt: Supply Cmax value. Item: COc1cc(C(F)(F)F)ccc1COc1cccc(N2C=NN(Cc3nc4c(F)cc(C(=O)O)cc4n3C[C@@H]3CCO3)CC2)n1
Response: 130

====

Biological target: Glucagon-like peptide 1 receptor (Homo sapiens, UniProt P43220)
Sequence (P43220 whole entry): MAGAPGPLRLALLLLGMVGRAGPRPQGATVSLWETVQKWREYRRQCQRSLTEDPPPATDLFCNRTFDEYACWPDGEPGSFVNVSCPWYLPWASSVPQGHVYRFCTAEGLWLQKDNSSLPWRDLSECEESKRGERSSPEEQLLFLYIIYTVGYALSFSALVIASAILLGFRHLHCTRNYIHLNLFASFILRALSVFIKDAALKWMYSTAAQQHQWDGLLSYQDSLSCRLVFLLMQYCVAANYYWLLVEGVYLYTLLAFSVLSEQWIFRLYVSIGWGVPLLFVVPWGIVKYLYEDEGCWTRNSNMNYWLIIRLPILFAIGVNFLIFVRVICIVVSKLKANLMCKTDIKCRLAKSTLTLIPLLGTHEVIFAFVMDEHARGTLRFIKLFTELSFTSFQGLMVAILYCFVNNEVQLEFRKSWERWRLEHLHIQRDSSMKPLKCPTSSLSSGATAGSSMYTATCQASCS
Test: Agonist activity at N-terminal HA-tagged human GLP-1R expressed in HEK293 cells assessed as effect on intracellular cAMP accumulation incubated for 30 mins by LANCA ultra cAMP assay
Type: functional, cell-based
Reported property: log10 EC50 (log10 of the value in nM)
In plain terms, each number is the log10 of measured EC50 in nM.

Worked examples, 2 molecules total:
COc1cc(C(F)(F)F)ccc1COc1cccc(N2C=NN(Cc3nc4c(F)cc(C(=O)O)cc4n3C[C@@H]3CCO3)CC2)n1 : -2.22
N#Cc1ccc(COc2cccc(OC3CCN(Cc4nc5ccc(C(=O)O)cc5n4C[C@@H]4CCO4)CC3)n2)c(F)c1 : -0.15

Prompt: Report its log10 EC50 with Glucagon-like peptide 1 receptor (Homo sapiens, UniProt P43220) as the test system: N#Cc1ccc(COc2cccc(N3CCC(NCc4nc5ccc(C(=O)O)cc5n4C[C@@H]4CCO4)CC3)n2)c(F)c1
Response: 2.18

Prompt: Report its log10 EC50 with Glucagon-like peptide 1 receptor (Homo sapiens, UniProt P43220) as the test system: CC1CN(c2cccc(OCc3ccc(C#N)cc3F)n2)C=NN1Cc1nc2ccc(C(=O)O)cc2n1C[C@@H]1CCO1 (stereo partly drawn)
Response: -0.22

Prompt: Report its log10 EC50 with Glucagon-like peptide 1 receptor (Homo sapiens, UniProt P43220) as the test system: N#Cc1ccc(COc2cccc(N3CCC4(CN(Cc5nc6ccc(C(=O)O)cc6n5C[C@@H]5CCO5)C4)C3)n2)c(F)c1
Response: 3.70

====

Assay: Stability in mouse liver microsomes assessed as intrinsic clearance at 1 uM measured upto 60 mins in the presence of NADPH by LC-MS/MS analysis
Type: ADME, Microsome
Conditions: 1 h
// returns Not satisfied unless CLH is strictly below 20 mL/min/g, in which case Satisfied

Completed entries (count: 6):
COc1cc(Cl)ccc1COc1cccc(N2C=NN(Cc3nc4c(F)cc(C(=O)O)cc4n3C[C@@H]3CCO3)CC2)n1 : Not satisfied
O=C(O)c1cc(F)c2nc(CN3CCN(c4cccc(OCc5ccc(Cl)c6c5OCC6)n4)C=N3)n(C[C@@H]3CCO3)c2c1 : Not satisfied
COc1cc(C(F)(F)F)ccc1COc1cccc(N2C=NN(Cc3nc4c(F)cc(C(=O)O)cc4n3C[C@@H]3CCO3)CC2)n1 : Not satisfied
N#Cc1ccc(COc2cccc(C3CCN(Cc4nc5ccc(C(=O)O)cc5n4C[C@@H]4CCO4)CC3)n2)c(F)c1 : Satisfied
N#Cc1ccc(COc2cccc(N3C=NN(Cc4nc5c(F)cc(C(=O)O)cc5n4C[C@@H]4CCO4)CC3)n2)c2occc12 : Satisfied
COc1cc(C#N)ccc1COc1cccc(N2C=NN(Cc3nc4c(F)cc(C(=O)O)cc4n3C[C@@H]3CCO3)CC2)n1 : Satisfied

Pending compound:
Prompt: Consider the compound O=C(O)c1cc(F)c2nc(CN3CCN(c4cccc(OCc5ccc(Cl)c6cc(F)oc56)n4)C=N3)n(C[C@@H]3CCO3)c2c1 . Is its CLH strictly less than 20 mL/min/g?
Response: Not satisfied
